Test system: acetylcholinesterase
Test: Compound was tested for hydrolysis by acetylcholinesterase and the kinetic constant, (Km) an apparent dissociation constant, and related to the enzyme's affinity for the substrate was reported
Type: ADME
parameter.measured: Km (mM)
Output spec: scalar in mM, unitless text.

CC(=O)OCCC(C)(C)C
5.3
CC(=O)OCC[N+](C)(C)C
0.33

Next:
I am curious: what Km value has been reported for `CC(=O)OCCS(C)(=O)=O` ? 6.2

====

Assay: Compound was tested for hydrolysis by acetylcholinesterase and the kinetic constant (kcat) which is a first-order rate constant was determined
parameter.measured: k cat

CC(=O)OCC[S+](C)[O-] (stereo not drawn)
3800 s⁻¹

I am curious: what k cat value has been reported for `CC(=O)OCCS(C)(=O)=O` ? 11 s⁻¹

I am curious: what k cat value has been reported for `CCCCOC(C)=O` ? 36 s⁻¹

I am curious: what k cat value has been reported for CCOC(C)=O [ETHYL ACETATE] ? 2900 s⁻¹

I am curious: what k cat value has been reported for `CSCCOC(C)=O` ? 3500 s⁻¹

I am curious: what k cat value has been reported for `CC(=O)OCCCl` ? 3400 s⁻¹

I am curious: what k cat value has been reported for `CC(=O)OCC[N+](C)(C)[O-]` ? 4500 s⁻¹

I am curious: what k cat value has been reported for `CC(=O)OCC[S+](C)C.[Br-]` ? 7700 s⁻¹

I am curious: what k cat value has been reported for `CC(=O)OCC[Si](C)(C)C` ? 5700 s⁻¹

I am curious: what k cat value has been reported for `CC(=O)OCCC(C)(C)C` ? 66 s⁻¹

I am curious: what k cat value has been reported for `CC(=O)OCCBr` ? 4500 s⁻¹

I am curious: what k cat value has been reported for `CC(=O)OCC[N+](C)(C)C` ? 160 s⁻¹

I am curious: what k cat value has been reported for `CC(=O)OCCC(C)C` ? 3400 s⁻¹

====

Each entry below carries its reported Km.
System: acetylcholinesterase
Assay: in vitro
Settings: acetylcholinesterase
Description: Compound was tested for hydrolysis by acetylcholinesterase and the kinetic constant, (Km) an apparent dissociation constant, and related to the enzyme's affinity for the substrate was reported.
Output spec: scalar in mM, unitless text.

Here are 3 molecules together with their reported answers.
CC(=O)OCC[S+](C)[O-] (stereo not drawn)
16
CC(=O)OCCBr
7.5
CC(=O)OCC[S+](C)C.[Br-]
0.33

I am curious: what Km value has been reported for `CC(=O)OCC[N+](C)(C)[O-]` ? 18

I am curious: what Km value has been reported for `CC(=O)OCCCl` ? 14

I am curious: what Km value has been reported for `CC(=O)OCCC(C)C` ? 3.6

I am curious: what Km value has been reported for `CC(=O)OCC[Si](C)(C)C` ? 3.5

I am curious: what Km value has been reported for `CSCCOC(C)=O` ? 15
